- System: SmLux
- TEST SUMMARY: Computationally generated LgLux variants expressed in E. coli, tested in lysates with SmLux and substrate 1c
- Format: biochemical
- MEASUREMENT PARAMETERS: Table 22, 50 uM substrate 1c
REPORTED PROPERTY: Baseline Signal (Normalized by expression)
One number for each entry.

Provide reported Baseline Signal (Normalized by expression) for each item, in the same order as listed.
1. MBIO-5375: computationally generated LgLux, SEQ ID NO 2790 (protein) MTPEERIADVRAFYAALASGDLEAAKALFDPGVTITLWDGTTFTSVEEFRAWFEEQFKTSKDALREIESIEVDGDTVRVLVRLSFTRNGQKHTVDLLQLFKFV
2. MBIO-5365: computationally generated LgLux, SEQ ID NO 2780 (protein) MTPEELRQNLLRFYEALDSGDAVAAASLFNPGVTITLWDGTTFTSVEEFREWFETQFKTSKDALREIESLEVDGDTVRVTVRLTFTRDGEEQVVDLLQLFKFV
3. MBIO-5379: computationally generated LgLux, SEQ ID NO 2794 (protein) MTPEERIADVRAFYAALASGDLEAAKALFDPGVTITLWDGTTFTSVEEFRAWFEEQFKTSKDALREIESIEVDGDTVRVLVRLTFVRDGEEKVVDLLQLFKFI
4. MBIO-5368: computationally generated LgLux, SEQ ID NO 2783 (protein) MTPEELRQNLLRFYEALDSGDAVAAKSLFNSGVTITLWDGATFTSIEKFREWFDTQFKTSKDALREIESLEVDGDTVRVTVRLTFTSDGEEQVVDLLQLFKFV
5. MBIO-5373: computationally generated LgLux, SEQ ID NO 2788 (protein) MTPEERIANVLAFYAALASGDLEAAAALFNPGVTITLWDGTTFTSVEEFRAWFEEQFKTSKDALREIESIEVDGDTVRVLVRLTFVRDGEEKVVDLLQLFKFV

[207.6, 1452.6, 338.4, 366.8, 388.2]

Provide reported Baseline Signal (Normalized by expression) for each item, in the same order as listed.
1. MBIO-5372: computationally generated LgLux, SEQ ID NO 2787 (protein) MTPEERIADVLAFYAALASGDLEAAKALFNPGVTITLWDGTTFTSVEEFRAWFEEQFKTSKDALREIESIEVDGDTVRVLVRLTFVRDGEEKVVDLLQQFKFI
2. MBIO-5363: computationally generated LgLux, SEQ ID NO 2778 (protein) MTPEERIANVLAFYAALASGDLEAAKALFNPGVTITLWDGTTFTSVEEFRAWFEEQFKTSKDALREIESIEVDGDTVRVLVRLSFTRNGQKHTVDLLQLFKFV

210.6
339.2
